// provenance: patent US20050226813A1

- assay system: T1, human cloned SST-R2 (human, UniProt P30874 1-369)
- T1 construct: whole, on cells; Assayed as membrane preparations of CHO cells expressing the cloned receptor, not as intact cells; also called hSST-R2; human SST-R2
- T1 sequence (P30874 whole entry): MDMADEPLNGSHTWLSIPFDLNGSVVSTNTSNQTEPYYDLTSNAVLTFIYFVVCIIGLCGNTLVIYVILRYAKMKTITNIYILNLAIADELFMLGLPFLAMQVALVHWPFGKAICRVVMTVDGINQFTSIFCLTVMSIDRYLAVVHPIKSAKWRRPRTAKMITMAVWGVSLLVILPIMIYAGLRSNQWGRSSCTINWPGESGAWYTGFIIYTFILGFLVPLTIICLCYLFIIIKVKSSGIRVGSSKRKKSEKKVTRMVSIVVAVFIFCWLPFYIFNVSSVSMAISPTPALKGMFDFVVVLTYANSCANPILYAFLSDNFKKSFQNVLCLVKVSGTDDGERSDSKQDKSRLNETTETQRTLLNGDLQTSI
- procedure text: inhibition of 125I-Tyr11-SRIF-14 binding to membranes of CHO cells expressing cloned human SST-R2
pIC50: −log10 of the molar value. *1 amine or outer side, *2 acyl side, *3 side chain or, on linkers, in order; H or OH if unused. Where no end group is shown, it is not given here. [ ]: non-standard residue; d: D form. ReO = oxorhenium(V), one metal core binding both hemi-chelators, from trichlorooxobis(triphenylphosphine)rhenium(V); GlyN3 = N-(3-aminopropyl)glycine amide, Cys acylated on the omega-amine, NC(=O)CN(CCCN[*:3])[*:1]
pIC50 vs 8: at or above is satisfied, below is not satisfied.

For orientation, consider the following solved cases.
binder	label
CFWWKTFG (not fully specified; D-Cys at 1; D-Trp at 4; GlyN6 building unit at 8 with D-Cys on its omega-amine; C-terminal amide; ReO (oxorhenium(V)) chelated by the two Cys closes the ring) [ReO-GF-16]	not satisfied
CGFWWKTFG (not fully specified; D-Cys at 1; D-Trp at 5; GlyN3 building unit at 9 with L-Cys on its omega-amine; C-terminal amide; ReO (oxorhenium(V)) chelated by the two Cys closes the ring) [ReO-GF-27]	not satisfied
CGFW[dW]KTF[GlyN3](Cys)-NH2 (bridge (positions not given here) via ReO; not fully specified (bridges); also: N2S2 oxorhenium(V) chelate via the two Cys) [ReO-GF-25]	not satisfied
CXFWWKTFG (L-Cys at 1; GABA at 2 (written X); D-Trp at 5; GlyN2 building unit at 9 with L-Cys on its omega-amine; C-terminal amide; ReO (oxorhenium(V)) chelated by the two Cys closes the ring) [ReO-GF-33]	not satisfied
CGFWWKTFG (not fully specified; L-Cys at 1; D-Trp at 5; GlyN6 building unit at 9 with D-Cys on its omega-amine; C-terminal amide; ReO (oxorhenium(V)) chelated by the two Cys closes the ring, also called ReO-LCys*-Gly-Phe-Trp-DTrp-Lys-Thr-Phe-GlyN6(DCys*)-NH2) [ReO-GF-10]	satisfied

Check this binder for pIC50 at or above 8: CGFWWKTFG (not fully specified; D-Cys at 1; D-Trp at 5; GlyN6 building unit at 9 with L-Cys on its omega-amine; C-terminal amide; ReO (oxorhenium(V)) chelated by the two Cys closes the ring, also called ReO-DCys*-Gly-Phe-Trp-DTrp-Lys-Thr-Phe-GlyN6(LCys*)-NH2) [ReO-GF-11]
satisfied

Decide: is the reported value of pIC50 for CGFWWKTFG (not fully specified; D-Cys at 1; D-Trp at 5; GlyN3 building unit at 9 with D-Cys on its omega-amine; C-terminal amide; ReO (oxorhenium(V)) chelated by the two Cys closes the ring) [ReO-GF-28] equal to or greater than 8?
not satisfied
